- Tested on: Aphis craccivora
- procedure_text: Insecticidal activity against Aphis craccivora (cowpea aphid) in compound treated horsebean plant leaves assessed as mortality measured after 24 hr by leaf-dip method
- Format: functional
Would you mind telling me the reported LC50 of each entry?
Hey, just the number and the unit after it is fine.

// worked examples, LC50 included
> print(dat)
                                   molecule  test.readout  value.measured
1  Cc1ccc([C@@H]2C([N+](=O)[O-])=C3N(Cc4ccc(Cl)nc4)CCN3[C@H](c3ccc(C)s3)[C@@]2(C2=NCCN2Cc2ccc(Cl)nc2)[N+](=O)[O-])s1          LC50         3.79 µM
2  O=[N+]([O-])C1=C2N(Cc3ccc(Cl)nc3)CCN2[C@H](c2ccco2)[C@@](C2=NCCN2Cc2ccc(Cl)nc2)([N+](=O)[O-])[C@@H]1c1ccco1          LC50         4.43 µM
3  O=[N+]([O-])/N=C1\NCCN1Cc1ccc(Cl)nc1 [IMIDACLOPRID]          LC50           35 µM
4  Cc1ccc([C@@H]2C([N+](=O)[O-])=C3N(Cc4ccc(Cl)nc4)CCN3[C@H](c3ccc(C)o3)[C@@]2(C2=NCCN2Cc2ccc(Cl)nc2)[N+](=O)[O-])o1          LC50         1.31 µM

--- query ---
Requested field: LC50. Item: O=[N+]([O-])C1=C2N(Cc3ccc(Cl)nc3)CCN2[C@H](c2cccs2)[C@@](C2=NCCN2Cc2ccc(Cl)nc2)([N+](=O)[O-])[C@@H]1c1cccs1
46.8 µM
